method-description: melting temperature; fluorescence melt of hairpins on a sequencing array, two-state fit, raised by 9.35 °C to match UV melts
experimental-conditions: sodium 0.088 M
In this section, each of the sequences is paired with its reported Tm.
Express the result in °C but write the number alone.

GCTCACGAAAGTGTAGC ((((((....))).))) | 51.5
GTGCGCGAAAGCGAGCAC ((((((....)))..))) | 57.7
GATCGTTAAAACGATC ((((((....)))))) | 54.5
CGCTCGGAAACGATAGCG ((((((....)))..))) | 46.9
GAGGATGGAAACGTCCTC (((((.(....).))))) | 49.6
GGGTCGGGAAACCGACTC (.(((((....))))).) | 58.9
GTGTATCCGAAAGGACAC (((..(((....)))))) | 42.2
GATCGGCATTCCGATC ((((((....)))))) | 57

Form: sequence = GATCACAGTAGTGATC ((((((....)))))) ; Tm = 59

// field: Tm; key: GCGCTTGGAAACAAACGC (((.(((....))).))) ; value = 48

----------
method-description: melting temperature; fluorescence melt of hairpins on a sequencing array, two-state fit, raised by 9.35 °C to match UV melts
experimental-conditions: sodium 0.088 M
observable: Tm (°C)
Answer in °C, number only, no unit symbol.

Take a look at these entries with their results.
GGTCGCTCGAAAGAGACC (((..(((....)))))) | 49.1
GGTGGCGAAAGCCCAACC ((((((....)))..))) | 42
GTAAAGCGAAAGCTTAC (((.(((....)))))) | 42.6
GATCCCAGAAGGGATC ((((((....)))))) | 60.4
GATCGGCGGCCGATC ((((((...)))))) | 58.1

Tm reading for GCCGCTGGAAACAGTGGC (((.(((....))).))) : 62.9

response.value for GCAGCTGGAAACGGTTGC (((.(.(....).).))) (field: Tm) = 41.1

Recorded Tm (sequence GCGGATACCGC ((((...)))) ): 57.1

Looking up GTAATGGGAAACCATTAC (((((((....))))))) , I see its Tm listed as 53.4

Briefly, Tm measured for GCCGAAGCGAAAGCTGGC (((..(((....)))))) : 57.1

Documented Tm of GCACCTCGAAAGAGTTGC (((.(((....))).))) : 48.6

Briefly, Tm measured for GTTTGAGAAATCAAAC ((((((....)))))) : 47

Per the record, GCCCCCGAAAGGGCTGGC ((((((....)))..))) has Tm of 61.8

The measured Tm associated with GATCGCACCGGCGATC ((((((....)))))) reads 68.3

Tm measured on GCCACGCGAAAGCGTTGC ((.((((....)))).)) = 57.6

Entry GCACACGAAAGTGTCTGC ((((((....)))..))) ; Tm = 42

The sequence GCACAGCGAAAGCTTGGC ((..(((....)))..)) showed Tm equal to 47.5

GET /value?item= GCATCGCGAAAGCTACGC ((.(.((....)).).)) &field=Tm returns 32.8

Consider GCTAGCGAAAGCTTAAGC ((((((....)))..))) . Its measured Tm is 43.2

Field Tm (entry GAAAAGCCGAAAGGCTTC (((..(((....)))))) ) reads 36.8
